- PROTOCOL_NOTES: Clearance in F344 rat at 25 mg/kg, po
- DETAILS: in vivo
MEASURED_ATTRIBUTE: CL/F

Please list CL/F recorded for the compound `NC(=O)c1sc2nccc(N3CCCN(c4ccccc4)CC3)c2c1N`
34 mL/min/kg

----------
- PROTOCOL_NOTES: Induction of osteoblastic differentiation in mouse ST2 cells assessed as increase in alkaline phosphatase activity after 4 days by lowry method
- Assay type: functional
MEASURED_ATTRIBUTE: EC200 (µg/mL)
Give bare numbers, in µg/mL.

STRUCTURE | MEASURED_ATTRIBUTE | RESULT_UNIT | VALUE_OBSERVED
CN(C)c1ccnc2sc(C(N)=O)c(N)c12 | EC200 | µg/mL | 0.17
NC(=O)c1sc2nccc(N3CCCN(c4nccs4)CC3)c2c1N | EC200 | µg/mL | 0.036

Look up EC200 for the entries below, preserving their order.
1. NC(=O)c1sc2nccc(N3CCCN(c4ccccn4)CC3)c2c1N
2. CN(C)C(=O)Cc1ccc(N2CCCN(c3ccnc4sc(C(N)=O)c(N)c34)CC2)cc1
3. Cc1ccc(N2CCCN(c3ccnc4sc(C(N)=O)c(N)c34)CC2)cc1
4. NC(=O)c1sc2nccc(N3CCCN(c4ccncc4)CC3)c2c1N
5. CNC(=O)c1ccc(N2CCCN(c3ccnc4sc(C(N)=O)c(N)c34)CC2)cc1
6. NC(=O)c1sc2nccc(N3CCCC3)c2c1N

1. 0.059
2. 0.003
3. 0.044
4. 0.091
5. 0.023
6. 0.29

Fill in EC200 for each of the 8 compounds listed.
1. N#Cc1ccc(N2CCCN(c3ccnc4sc(C(N)=O)c(N)c34)CC2)cc1
2. NC(=O)c1ccc(N2CCCN(c3ccnc4sc(C(N)=O)c(N)c34)CC2)cc1
3. NC(=O)c1sc2nccc(N3CCOCC3)c2c1N
4. NC(=O)c1sc2nccc(N3CCCN(c4ccccc4)CC3)c2c1N
5. NC(=O)c1sc2nccc(N3CCCN(c4ccc(F)cc4)CC3)c2c1N
6. NC(=O)c1sc2nccc(NC3CCCCC3)c2c1N
7. Cc1cccc(N2CCCN(c3ccnc4sc(C(N)=O)c(N)c34)CC2)c1
8. CC(C)(C)c1ccc(N2CCCN(c3ccnc4sc(C(N)=O)c(N)c34)CC2)cc1

1: 0.099; 2: 0.079; 3: 0.44; 4: 0.051; 5: 0.082; 6: 0.24; 7: 0.074; 8: 0.27

Please report EC200 for every entry that follows.
1. CCOC(=O)c1ccc(N2CCCN(c3ccnc4sc(C(N)=O)c(N)c34)CC2)cc1
2. NC(=O)c1sc2nccc(N3CCN(c4ccccc4)CC3)c2c1N
3. COc1ccc(N2CCCN(c3ccnc4sc(C(N)=O)c(N)c34)CC2)cc1
4. NC(=O)c1sc2nccc(N3CCCCC3)c2c1N

1: 0.193; 2: 0.1; 3: 0.035; 4: 0.067

Query EC200 for `CN(C)C(=O)c1ccc(N2CCCN(c3ccnc4sc(C(N)=O)c(N)c34)CC2)cc1`
0.014
